- test_protocol: in vitro
- condition_set: mouse, liver microsomes
recorded_metric: half-life (min)
Numbers only, in min.

Recorded result, "COc1cc(N2CCN(C)CC2)ccc1Nc1ncc2c(n1)N(C)c1ccccc1C(=O)N2C" , half-life: 22

* * *

- test_protocol: in vivo
- condition_set: CD1, mouse, po, 10 mg/kg
recorded_metric: AUC(0-inf) (ng·h/mL)
Give bare numbers, in ng·h/mL.

The examples below pair each entry with its known result.
- compound_string: "COc1cc(N2CCN(C)CC2)ccc1Nc1ncc2c(n1)N(C)c1ccccc1C(=O)N2C"
  units_label: "ng·h/mL"
  numeric_value: 2000
- compound_string: "COc1cc2c(cc1Nc1ccc(Nc3ncc4c(n3)N(C)c3ccccc3C(=O)N4)cc1)CCN(C)C2"
  units_label: "ng·h/mL"
  numeric_value: 125

The measured AUC(0-inf) associated with "COc1cc(N2CCN(C)CC2)ccc1Nc1ncc2c(n1)N(C)c1ccccc1C(=O)N2" reads 56

* * *

For each entry below, report its bioavailability value.
- test_protocol: in vivo
- condition_set: CD1, mouse, po, 10 mg/kg
One number for each entry, in %.

Consider the reported bioavailability for these compounds:
- compound_string: "COc1cc2c(cc1Nc1ccc(Nc3ncc4c(n3)N(C)c3ccccc3C(=O)N4)cc1)CCN(C)C2"
  recorded_metric: "bioavailability"
  numeric_value: 7
- compound_string: "COc1cc(N2CCN(C)CC2)ccc1Nc1ncc2c(n1)N(C)c1ccccc1C(=O)N2"
  recorded_metric: "bioavailability"
  numeric_value: 5

API: the following record is the query input.
Record summary for "COc1cc(N2CCN(C)CC2)ccc1Nc1ncc2c(n1)N(C)c1ccccc1C(=O)N2C" : reported bioavailability = 46

* * *

- test_protocol: in vivo
- condition_set: CD1, mouse, iv, 3 mg/kg
recorded_metric: half-life (h)
Give bare numbers, in h.

Answered examples (2):
- compound_string: "COc1cc(N2CCN(C)CC2)ccc1Nc1ncc2c(n1)N(C)c1ccccc1C(=O)N2C"
  half-life / h: 4.4
- compound_string: "COc1cc2c(cc1Nc1ccc(Nc3ncc4c(n3)N(C)c3ccccc3C(=O)N4)cc1)CCN(C)C2"
  half-life / h: 10

Then there is this compound:
The reported value for "COc1cc(N2CCN(C)CC2)ccc1Nc1ncc2c(n1)N(C)c1ccccc1C(=O)N2" in terms of half-life is 0.7
